fraction ligated: recorded values
B1: F1*; the commonest letter at each place (parent)
chain: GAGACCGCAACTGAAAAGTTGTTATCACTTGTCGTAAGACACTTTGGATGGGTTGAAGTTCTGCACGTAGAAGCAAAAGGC

Variants of: B1
Experiment: fraction ligated after 30 min (ligated reads / total reads); higher = more ligase activity
Conditions: with F1*sub RNA substrate (template-directed ligation), 42 °C

| mut | fraction ligated |
| --- | --- |
| A36T A57G | 0.841 |
| A27C T49A | 0.701 |
| T43C G47T | 0.446 |
| T25C G55C | 0.424 |
| C26G G46A | 0.785 |
| C28G G34A | 0.794 |
| C42A T43C | 0.825 |
| T45A A48T | 0.0749 |
| T32A C40T | 0.806 |
| A27G T32C | 0.77 |
| C28T A36G | 0.81 |
| C33G A39C | 0.833 |
| C28G A36T | 0.788 |
| A27G A39C | 0.8 |
| G38C G47A | 0.306 |
| T30C T32G | 0.809 |
